System: SK-MEL-28
PROCEDURE DETAILS: NCI tumour cell line growth inhibition, 48 h
Activity calls are given as the source filed them. Rule as the data show it: active = GI50 up to about 1.1 µM and inactive = higher.
As shown below, each of these compounds has a reported GI50 value.

[in] Name the recorded GI50 of the item C=C(C)[C@@H]1CC[C@]2(C(=O)O)CC[C@]3(C)[C@H](CC[C@@H]4[C@@]5(C)CC[C@H](O)C(C)(C)[C@@H]5CC[C@]43C)[C@@H]12 [BETULINIC ACID] in your answer.
[out] 17.1 µM (inactive)

[in] Name the recorded GI50 of the item O=c1cc(-c2ccc(O)cc2)oc2cc(O)cc(O)c12 [APIGENIN] in your answer.
[out] 20.3 µM (inactive)

[in] Name the recorded GI50 of the item "CN(CCO)CC(=O)CC(O)(C(F)(F)F)C(F)(F)F" in your answer.
[out] 42.6 µM (inactive)

[in] Name the recorded GI50 of the item "N#C/C=C(/NC(=O)Nc1ccccc1)N1CCCC1" in your answer.
[out] > 47.9 µM (inactive)

[in] Name the recorded GI50 of the item "O=C(CSc1nc2ccccc2c(=O)n1-c1ccccc1)N/N=C1\C(=O)Nc2ccc(Br)cc21" in your answer.
[out] 3.35 µM (inactive)

[in] Name the recorded GI50 of the item Cn1cc2ccccc2c1-c1nc(F)nc(Oc2ccc3c(c2)CC[C@@H]2C3CC[C@@]3(C)C2CC[C@@H]3O)n1 (some centres undefined) in your answer.
[out] 10.4 µM (inactive)

[in] Name the recorded GI50 of the item "Cc1cc(NS(=O)(=O)c2ccc(NC(=O)c3cccc4c(=O)c5ccccc5[nH]c34)cc2)no1" in your answer.
[out] 41.2 µM (inactive)

[in] Name the recorded GI50 of the item CN(C)/C=N\c1nc(=O)n(C2CCC(CO)O2)cc1F (centres undefined) in your answer.
[out] > 100 µM (inactive)

[in] Name the recorded GI50 of the item CCOC1CN(C)/C(=N\c2cccc3ccccc23)S1 (centres undefined) in your answer.
[out] > 10 µM (inactive)

All figures here come from ChEMBL document CHEMBL1201862.
